biological target: HLA-A*69:01; test: IEDB peptide-MHC binding, purified MHC/direct/fluorescence; filed as Kd, often an IC50 or EC50 that approximates it; bounds were set here for any values at or beyond the usual limits of such assays; conditions: source organism: Campylobacter jejuni
measured_parameter: Kd

[[record]]
construct_sequence = "VKKLWGHLP"
measured_parameter = "Kd"
measured = "≥ 20 µM"

[[record]]
construct_sequence = "VFKVKLHEI"
measured_parameter = "Kd"
measured = "≥ 20 µM"


###

target: HLA-A*69:01; assay: IEDB peptide-MHC binding, purified MHC/competitive/fluorescence; filed as Kd, often an IC50 or EC50 that approximates it; bounds were set here for any values at or beyond the usual limits of such assays; conditions: source organism: Salmonella enterica subsp. enterica serovar Typhi
pKd: −log10 of the molar value.
measured_parameter: pKd

[[record]]
construct_sequence = "MSAIVSCRY"
tested_target = "HLA-A*69:01"
measured = "≤ 4.70"

